- runDescription: AUC 24 hrs in fasted Sprague-Dawley rat at 1 mg/kg, po
- Type: ADME, organism-based
- experimentalParameters: in vivo
propertyMeasured: AUC at 24 h (µM·h)

Request: Determine from records and report AUC at 24 h for COc1cnc2c(-c3nc4ccc5c(c4s3)C[C@H](COC(=O)Nc3cnc(C)nc3)O5)cc(C)cc2n1
Response: 17

1. COc1ccc(NC(=O)OC[C@H]2COc3c(cc(Cl)c4nc(-c5cc(C)cc6nc(OC)cnc56)sc34)O2)cn1
2. COc1cnc2c(-c3nc4c(Cl)cc5c(c4s3)OC[C@H](COC(=O)Nc3cnc(C)nc3)O5)cc(C)cc2n1
Request: Lower value of AUC at 24 h belongs to which: 1 or 2 ? Write down the label attached to your selection.
Response: 1
(1: 1.5 µM·h, 2: 12 µM·h)
